Hey, just so you know, these numbers are from the supplement of paper PMC10127200.

tested on: A549; assay: Euclidean distance of Cell Painting phenotypic profile (signed KS, 77 features) to DMSO centroid (dimensionless distance); 5 or 10 uM (library dependent); higher = stronger phenotypic change vs DMSO (phenoactivity); settings: 48 h
Give measured Euclidean distance for each item. Keep answers brief.
Answers are plain numbers.

Any idea what its Euclidean distance is? The compound is "Nc1ccc(S(=O)(=O)Nc2ccccn2)cc1" 1.12

Any idea what its Euclidean distance is? The compound is "Oc1c(I)cc(Cl)c2cccnc12" 1.03

Any idea what its Euclidean distance is? The compound is "CS(=O)(=O)N1CCN(Cc2cc3nc(-c4cccc5[nH]ncc45)nc(N4CCOCC4)c3s2)CC1" 2.71

// batch mode: one Euclidean distance value per listed entry
1. Nc1c(CC(=O)O)cccc1C(=O)c1ccccc1 [Amfenac Sodium Monohydrate]
2. Cn1c(=O)n(-c2ccc(C(C)(C)C#N)cc2)c2c3cc(-c4cnc5ccccc5c4)ccc3ncc21
3. Cc1c(-c2ccc(-c3ccccc3F)cc2)nc2ccc(F)cc2c1C(=O)O
4. C=CCCCCCCCCC(=O)[O-].C=CCCCCCCCCC(=O)[O-].[Zn+2] [Zinc Undecylenate]
5. C[C@H]1[C@H](NC(=O)/C(=N\OC(C)(C)C(=O)O)c2csc(N)n2)C(=O)N1S(=O)(=O)O
6. CNCCc1ccccn1

1. 0.843
2. 3.79
3. 1.46
4. 2.06
5. 0.951
6. 0.763
